test system: NCI-H226; assay: NCI tumour cell line growth inhibition, 48 h
Activity calls are given as the source filed them. No stated cut-off is given here; in the data, active = GI50 up to about 1.1 µM and inactive = higher.
Valid outcomes are listed here; reply with one: active, inactive

>  <molecule>
Cc1cc(C)c2c(c1)C/C(=C\c1ccccc1C(=O)O)C2=O

>  <category label>
inactive

$$$$
>  <molecule>
CCOc1ccc(/C=C(\Cl)c2ccc(OC)c(OC)c2)cc1

>  <category label>
inactive

$$$$

Let's switch to this molecule now.
Hello, I am checking results. What call was entered for `COc1ccccc1NC(=O)C1=C(C)NC(C)=C(C(=O)Nc2ccccc2OC)C1c1ccc(N(C)C)cc1` ?
inactive

###

Kindly state GI50 for each of the entries shown.
tested on: M19-MEL; assay: NCI tumour cell line growth inhibition, 48 h
The source made the active and inactive calls. No stated cut-off is given here; in the data, active = GI50 up to about 1.1 µM and inactive = higher.

>  <molecule>
O=C(Cc1cc[n+]([O-])cc1)C(=O)Nc1cc(Cl)c(Cl)cc1Cl

>  <target>
M19-MEL

>  <GI50>
> 100 µM (inactive)

$$$$
>  <molecule>
COc1ccc2c(c1)C1C(CO2)C(c2ccccc2)=NN1c1ccccc1 (stereo unspecified)

>  <target>
M19-MEL

>  <GI50>
> 100 µM (inactive)

$$$$

Count: 3. Required value per item: GI50.
1. O=S(=O)(c1ccccc1)C1CN2OC1(S(=O)(=O)c1ccccc1)CC21CCCCC1 (stereo unspecified)
2. CCOC(=O)C1C(=O)c2cccc(OC)c2C2COC(=O)N12 (stereo unspecified)
3. CC1(C)COC(C23C4C5C2C2C3C4C52I)=N1 (stereo unspecified)

> 100 µM (inactive)
> 100 µM (inactive)
> 100 µM (inactive)

For the molecule Nc1ncnc2c1ncn2C1OC(CO)C(O)C1O (stereo unspecified) , what GI50 is on record?
333 µM (inactive)

Data provenance is ChEMBL document CHEMBL1201862.
